# Measurement description: In vivo plasma stability of APJ agonist conjugates, 1 mg/kg iv
# Condition notes: rat, in vivo, male Sprague-Dawley rats, 1 mg/kg intravenously, read-out: In vivo Plasma stability t½ (converted)
Positions of bridges follow the written chain, without caps; N, C: chain ends. Non-standard residues stand in square brackets, D forms with d. Residues, ends and D or L forms follow the SMILES beside them. *: point of attachment. pGlu = O=C1CC[C@@H](C(=O)O)N1; NHPhenethyl = c1ccc(CCN*)cc1; dNle = CCCC[C@@H](N)C(=O)O; Nle = CCCC[C@H](N)C(=O)O
# maps each entry to its half-life
Reply numerically in min, unit not repeated.

Which half-life value is on record for CCCC[C@@H]1NC(=O)[C@@H]2CCCN2C(=O)CNC(=O)[C@H](CCCCN)NC(=O)[C@H](Cc2cnc[nH]2)NC(=O)[C@@H](NC(=O)[C@H](CC(C)C)NC(=O)[C@H](CCCNC(=N)N)NC(=O)[C@@H]2CCCN2C(=O)[C@H](CCCNC(=N)N)NC(=O)[C@@H]2CCC(=O)N2)CSSC[C@@H](C(=O)N[C@@H](Cc2ccccc2)C(=O)O)NC1=O ([pGlu]RPRLCHKGP[Nle]CF-OH; disulfide 6-12) ?
42

---
I would be grateful if you could share the reported half-life for CCCC[C@@H](NC(=O)[C@@H]1CCCN1C(=O)CNC(=O)[C@H](CCCCN)NC(=O)[C@@H]1CSSC[C@H](NC(=O)[C@@H]2CCCN2C(=O)[C@H](CCCNC(=N)N)NC(=O)[C@@H]2CCC(=O)N2)C(=O)N[C@@H](CC(C)C)C(=O)N[C@@H](CO)C(=O)N1)C(=O)NCCc1ccccc1 ([pGlu]RPCLSCKGP[dNle]-NHPhenethyl; disulfide 4-7) .
54
